# credit: ChEMBL document CHEMBL1130070

tested on: CEM-SS; assay: Antiviral activity against HIV-1ADA in […]; type: functional, cell-based; conditions: Homo sapiens
As shown below, each of these molecules has a reported IC50 value.
readout.type: IC50

INSERT INTO assay_data (molecule, reported) VALUES
  ('C/C(=C(\CCO)SS/C(CCO)=C(/C)N(C=O)Cc1cnc(C)nc1N)N(C=O)Cc1cnc(C)nc1N', '> 100 µM'),
  ('NCCS [CYSTEAMINE]', '> 100 µM'),
  ('CCN(CC)C(=S)S [DITIOCARB]', '> 100 µM'),
  ('NCCSSCCN [CYSTAMINE]', '> 100 µM'),
  ('CCN(CC)C(=S)SSC(=S)N(CC)CC [DISULFIRAM]', '> 100 µM');
